Entry source: patent US20240252668A1

# Experiment: EPSA determination by supercritical fluid chromatography
# Type: physicochemical
# Condition: supercritical fluid chromatography, Chirex 3014 column; modified EPSA method, SFC; read-out: EPSA
Starred links: 1 amine or outer side, 2 acyl side, 3 side chain; linkers in the order of their positions; H or OH if unused. Positions of bridges follow the written chain, without caps; N, C: chain ends. Non-standard residues stand in square brackets, D forms with d. Residues, ends and D or L forms follow the SMILES beside them. *: point of attachment. Leu(3R-OH,Nα-propionyl) = CCC(=O)N[C@H](C(=O)*)[C@H](O)C(C)C; X1 = CC(C)[C@@H](O[*:3])[C@H](N[*:1])C(=O)[*:2]; NMeT = CN[C@H](C(=O)O)[C@@H](C)O; dPhLac = O=C(O)[C@H](O)Cc1ccccc1; NMeA = CN[C@@H](C)C(=O)O; NMeDha = C=C(NC)C(=O)O
Observed Property: EPSA (A^2)
Could you give me the number in A^2? Just the number is fine.

For C=C1C(=O)N[C@@H](C)C(=O)N(C)[C@@H](C)C(=O)N[C@@H]([C@H](OC(=O)[C@@H](NC(=O)CC)[C@H](O)C(C)C)C(C)C)C(=O)N(C)[C@@H]([C@@H](C)OC)C(=O)O[C@H](C(C)C)[C@H](NC(C)=O)C(=O)O[C@H](Cc2ccccc2)C(=O)N1C [Compound (A1), FR900359] (Ac-[X1][dPhLac][NMeDha]A[NMeA][X1](Leu(3R-OH,Nα-propionyl))[NMeT](Me); ester 1-C) , what is its reported EPSA?
94

====

Below, each entry is listed with its recorded % Fraction absorbed.
# System: MDCK-LE monolayers
# Experiment: Cell-based transwell assay with MDCK-low efflux monolayers (passive permeability)
# Format: in vitro ADME
# Condition: MDCK-LE monolayers
# Procedure: Cell-based transwell assays with MDCK-low efflux monolayers: Compounds (A1) and 2-15 were tested in MDCK cell sub-clones with low effluxt ransporter activity (MDCK-LE) in order to determine their passive permeability. The incubations were performed at a contract research organization as described previously.
Starred links: 1 amine or outer side, 2 acyl side, 3 side chain; linkers in the order of their positions; H or OH if unused. Positions of bridges follow the written chain, without caps; N, C: chain ends. Non-standard residues stand in square brackets, D forms with d. Residues, ends and D or L forms follow the SMILES beside them. *: point of attachment. Leu(3R-O(AcLeu(3R-OH))) = CC(=O)N[C@H](C(=O)O[C@H](C(C)C)[C@H](N)C(=O)O)[C@H](O)C(C)C; Leu(3R-OH,Nα-propionyl) = CCC(=O)N[C@H](C(=O)*)[C@H](O)C(C)C; X1 = CC(C)[C@@H](O[*:3])[C@H](N[*:1])C(=O)[*:2]; X5 = CSC[C@@H](O[*:3])[C@H](N[*:1])C(=O)[*:2]; X4 = CCC(=O)N[C@H](C(=O)*)[C@H](O)CSC; NMeT = CN[C@H](C(=O)O)[C@@H](C)O; dPhLac = O=C(O)[C@H](O)Cc1ccccc1; X2 = CC(C)C=C(N[*:1])C(=O)[*:2]; NMeA = CN[C@@H](C)C(=O)O; NMeDha = C=C(NC)C(=O)O
Could you give me the number in %? Just the number is fine.

Worked cases, % Fraction absorbed given:
{"Compound": "C=C1C(=O)N[C@@H](C)C(=O)N(C)[C@@H](C)C(=O)N[C@@H]([C@H](OC(=O)[C@@H](NC(=O)CC)[C@H](O)C(C)C)C(C)C)C(=O)N(C)[C@@H]([C@@H](C)OC)C(=O)O[C@H](C(C)C)[C@H](NC(C)=O)C(=O)O[C@H](Cc2ccccc2)C(=O)N1C [Compound (A1), FR900359] (Ac-[X1][dPhLac][NMeDha]A[NMeA][X1](Leu(3R-OH,Nα-propionyl))[NMeT](Me); ester 1-C)", "% Fraction absorbed (%)": 59.7}
{"Compound": "C=C1C(=O)N[C@@H](C)C(=O)N(C)[C@@H](C)C(=O)N[C@@H]([C@H](OC(=O)[C@@H](NC(=O)CC)[C@H](O)C(C)C)C(C)C)C(=O)N(C)[C@@H]([C@@H](C)OC)C(=O)O[C@H](CSC)[C@H](NC(C)=O)C(=O)O[C@H](Cc2ccccc2)C(=O)N1C [Compound 2] (Ac-[X5][dPhLac][NMeDha]A[NMeA][X1](Leu(3R-OH,Nα-propionyl))[NMeT](Me); ester 1-C)", "% Fraction absorbed (%)": 72.6}
{"Compound": "C=C(C(=O)N[C@@H](C)C(=O)N(C)[C@@H](C)C(=O)N[C@H](C(=O)N(C)[C@H](C(=O)O)[C@@H](C)OC)[C@H](OC(=O)[C@@H](NC(=O)CC)[C@H](O)C(C)C)C(C)C)N(C)C(=O)[C@@H](Cc1ccccc1)OC(=O)C(=CC(C)C)NC(C)=O [Compound 5] (Ac-[X2][dPhLac][NMeDha]A[NMeA][X1](Leu(3R-OH,Nα-propionyl))[NMeT](Me)-OH)", "% Fraction absorbed (%)": 4.2}
{"Compound": "C=C1C(=O)N[C@@H](C)C(=O)N(C)[C@@H](C)C(=O)N[C@@H]([C@H](OC(=O)[C@@H](NC(C)=O)[C@H](O)C(C)C)C(C)C)C(=O)N(C)[C@@H]([C@@H](C)OC)C(=O)O[C@H](C(C)C)[C@H](NC(C)=O)C(=O)O[C@H](Cc2ccccc2)C(=O)N1C [Compound 8] (Ac-[X1][dPhLac][NMeDha]A[NMeA][Leu(3R-O(AcLeu(3R-OH)))][NMeT](Me); ester 1-C)", "% Fraction absorbed (%)": 70.4}
{"Compound": "C=C1C(=O)N[C@@H](C)C(=O)N(C)[C@@H](C)C(=O)N[C@@H]([C@H](OC(=O)[C@@H](NC(=O)CC)[C@H](O)CSC)C(C)C)C(=O)N(C)[C@@H]([C@@H](C)OC)C(=O)O[C@H](C(C)C)[C@H](NC(C)=O)C(=O)O[C@H](Cc2ccccc2)C(=O)N1C [Compound 4] (Ac-[X1][dPhLac][NMeDha]A[NMeA][X1](X4)[NMeT](Me); ester 1-C)", "% Fraction absorbed (%)": 32.5}

Now consider the entry below.
For C=C1C(=O)N[C@@H](C)C(=O)N(C)[C@@H](C)C(=O)N[C@@H]([C@H](OC(=O)[C@@H](NC(=O)CC)[C@H](O)C(C)C)C(C)C)C(=O)N(C)[C@@H]([C@@H](C)OC)C(=O)O[C@H](C)[C@H](NC(C)=O)C(=O)O[C@H](Cc2ccccc2)C(=O)N1C [Compound 14] (Ac-T[dPhLac][NMeDha]A[NMeA][X1](Leu(3R-OH,Nα-propionyl))[NMeT](Me); ester 1-C) , what is its reported % Fraction absorbed?
53.3
